# Assay System: CD3 epsilon/delta heterodimer (Homo sapiens, UniProt P07766;P04234 P07766:23-126,P04234:22-105)
# Sequence (P07766 23-126, stated change not applied, chain 1 of 2): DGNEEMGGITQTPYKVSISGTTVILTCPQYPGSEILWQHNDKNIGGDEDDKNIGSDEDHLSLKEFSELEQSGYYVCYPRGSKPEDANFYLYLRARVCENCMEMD
# Sequence (P04234 22-105, stated change not applied, chain 2 of 2): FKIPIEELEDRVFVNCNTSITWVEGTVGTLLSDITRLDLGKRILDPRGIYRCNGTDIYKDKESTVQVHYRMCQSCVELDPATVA
# Assay Explanation: SPR; steady state; kinetic 8.2 nM (Table 6), 900 pM (Table 8)
# Condition Notes: tags: C-terminal human IgG1 Fc fusion, AcroBiosystems; chain copies: heterodimer 1:1 (inferred); label: 5'-biotin-TEG
Value Type: pKd
One number for each entry, as −log10 of the molar value.

# binder TACCGCGGGGATTGGCTCCGGGCCTGGCGTCGTAATCTGA (ssDNA) [CELTIC_19s] ; its pKd = 6.82
